Where do these numbers come from? They come from PubChem BioAssay (NCATS).

- Tested on: KB-3-1
- run-description: Cytotoxic Profiling of Annotated Libraries Using Quantitative High-Throughput Screening (AID 1296008); also: % is scaled to controls: 0 for no effect and ±100 for the full control effect; nearly all actives have a fitted effect of over 60% in size
- assay-conditions: Five cell lines viability, CellTiter-Glo ATP luminescence, 48-72 h; hits give low values
Inconclusive results are not listed.
Each entry below lists one item and its recorded max response value.
experimental-endpoint: max response (%)

compound=C/C=C1\[C@H](O[C@@H]2O[C@H](CO)[C@@H](O)[C@H](O)[C@H]2O)OC=C(C(=O)OCCc2ccc(O)cc2)[C@H]1CC(=O)OCCc1ccc(O)cc1 experimental_endpoint="max response" uom=% result_value=-0.75
compound=COc1cc(/C=C/C(=O)O[C@@H]2O[C@H](CO)[C@@H](O)[C@H](O)[C@H]2O)ccc1O experimental_endpoint="max response" uom=% result_value=-1.87
compound=c1ccc2c(Nc3nnc(-c4ccncc4)s3)cccc2c1 experimental_endpoint="max response" uom=% result_value=9.81
compound=O=C(Cc1ccccc1)OC[C@H]1O[C@H](O[C@H]2O[C@H](CO)[C@@H](O)[C@H](O)[C@H]2O)[C@H](O)[C@@H](O)[C@@H]1O experimental_endpoint="max response" uom=% result_value=9.38
compound=C[C@H]1/C=C/C=C/C=C/C=C/C=C/[C@@H](O)[C@H](C(=O)O)[C@H](O)C[C@H](O)CCC[C@H](O)C[C@H](O)C[C@H](O)[C@@H](C)C(=O)O[C@@H]1C experimental_endpoint="max response" uom=% result_value=7.54
compound="CC1CCC2(NC1)OC1C(O)C3C4CCC5CC(O[C@@H]6O[C@H](CO)[C@@H](O)[C@H](O)[C@H]6O[C@@H]6O[C@@H](C)[C@H](O)[C@@H](O)[C@H]6O)CCC5(C)C4CCC3(C)C1C2C (stereo not given in full)" experimental_endpoint="max response" uom=% result_value=-0.386
compound="CC1OC(O[C@@H]2[C@@H](O)[C@H](OC(=O)[C@]34CCC(C)(C)C[C@H]3C3=CCC5[C@@]6(C)CC[C@H](O[C@@H]7O[C@H](C(=O)O)[C@@H](O)[C@H](O[C@@H]8OC[C@@H](O)[C@H](O)[C@H]8O)[C@H]7O[C@@H]7O[C@H](CO)[C@H](O)[C@H](O)[C@H]7O)[C@@](C)(C=O)C6CC[C@@]5(C)[C@]3(C)C[C@H]4O)O[C@H](C)[C@@H]2OC2OC(C)C(OC3OCC(O)C(O)C3O)C(O)C2O)C(O)C(O)C1O (stereo not given in full)" experimental_endpoint="max response" uom=% result_value=-3.93
compound="C=CC(C)(O)CCC1C(C)(O)CCC2C(C)(C)CCCC21C (stereo not given)" experimental_endpoint="max response" uom=% result_value=9.64
compound=C=C1C[C@]23C[C@H]1CC[C@H]2[C@]1(C)CC[C@H](O)[C@@](C)(C(=O)O)[C@H]1[C@@H]3C(=O)O experimental_endpoint="max response" uom=% result_value=-2.4
compound="C[C@@H]1C(=O)O[C@H](C)[C@H]1C[C@@H](O)[C@](C)(O)[C@H]1CC[C@@]2(O)C3=CC(=O)[C@@H]4C[C@@H](O)[C@@H](O)C[C@]4(C)C3CC[C@]12C (stereo not given in full)" experimental_endpoint="max response" uom=% result_value=8.3
compound="O=C(/C=C/c1ccc(O)cc1)OCC1OC(O)C(OC2OC(CO)C(O)C(O)C2O)C(O)C1O (stereo not given)" experimental_endpoint="max response" uom=% result_value=8.27
compound=C=C1C(=O)O[C@@H]2C[C@]3(C)[C@@H](CCC(C)=O)[C@@H]3C[C@H]12 experimental_endpoint="max response" uom=% result_value=2.7
compound=Cc1onc(-c2ccccc2Cl)c1C(=O)N(C)c1ccc(Cl)cc1 experimental_endpoint="max response" uom=% result_value=4.59
compound="C/C(=C\\C(=O)C(C)C1CCC2C3=C(CCC21C)C1(C)CCC(=O)C(C)(C)C1(O)CC3)C(C)(C)O (stereo not given)" experimental_endpoint="max response" uom=% result_value=-3.74
compound=CC(C)(C)NS(=O)(=O)c1ccc(-c2ccc3[nH]nc(N)c3c2)cc1 experimental_endpoint="max response" uom=% result_value=8.07
compound=CC(C)=C1C[C@@]2(C)C(=CC1=O)CC[C@@H](O)[C@@H]2C experimental_endpoint="max response" uom=% result_value=3.47
compound="CC1(C)CC[C@]2(C(=O)O[C@@H]3O[C@H](CO)[C@@H](O)[C@H](O)[C@H]3O)CC[C@]3(C)C(=CCC4[C@@]5(C)CC[C@H](O[C@@H]6O[C@H](C(=O)O)[C@@H](O[C@@H]7O[C@H](CO)[C@@H](O)[C@H](O)[C@H]7O)[C@H](O)[C@H]6O[C@@H]6O[C@H](CO)[C@@H](O)[C@H](O)[C@H]6O)C(C)(C)C5CC[C@]43C)C2C1 (stereo not given in full)" experimental_endpoint="max response" uom=% result_value=9.55
compound=Cc1ccccc1-n1nc(-c2c(-c3ccc(F)cc3)nn3c2NC[C@@H](CO)C3)ccc1=O experimental_endpoint="max response" uom=% result_value=1.64
compound=CC1=C2C(=O)C=C(CO[C@@H]3O[C@H](CO)[C@@H](O)[C@H](O)[C@H]3O)[C@@H]2[C@H]2OC(=O)[C@H](C)[C@@H]2[C@@H](O)C1 experimental_endpoint="max response" uom=% result_value=2.15
compound=Cn1c2ccc(NC(=O)c3ccccc3)cc2c(=O)n2nc(C(=O)O)cc12 experimental_endpoint="max response" uom=% result_value=0.84
compound="CC(=O)N[C@H]1[C@H](O[C@H]2CC[C@]3(C)C4CC=C5[C@@H]6CC(C)(C)CC[C@]6(C(=O)O)[C@H](O)C[C@@]5(C)[C@]4(C)CC[C@H]3C2(C)C)O[C@H](CO)[C@@H](O)[C@@H]1O (stereo not given in full)" experimental_endpoint="max response" uom=% result_value=-6.34
compound="CC(=O)O[C@@H]1[C@H](O[C@@H]2OC[C@](O)(CO)[C@H]2O)[C@@H](O[C@@H]2O[C@@H](C)[C@H](O)[C@@H](O[C@@H]3O[C@H](CO)[C@@H](O)[C@H](O)[C@H]3O)[C@H]2O)[C@H](OC(=O)[C@]23CCC(C)(C)C[C@H]2C2=CCC4[C@@]5(C)C[C@H](O)[C@H](O[C@@H]6O[C@H](C(=O)O)[C@@H](O)[C@H](O)[C@H]6O)[C@@](C)(C(=O)O)C5CC[C@@]4(C)[C@]2(C)CC3)O[C@@H]1C (stereo not given in full)" experimental_endpoint="max response" uom=% result_value=3.25
compound=C=C(C(=O)O)[C@@H]1CC[C@@]2(C)CCC[C@@](C)(O)[C@@H]2C1 experimental_endpoint="max response" uom=% result_value=5.56
compound=C[C@]1(OC(=O)/C=C/c2ccccc2)C[C@@H](O)[C@]2(O)C=CO[C@@H](O[C@@H]3O[C@H](CO)[C@@H](O)[C@H](O)[C@H]3O)[C@@H]21 experimental_endpoint="max response" uom=% result_value=8.76
compound=COc1ccccc1CN[C@H]1CCCN[C@H]1c1ccccc1 experimental_endpoint="max response" uom=% result_value=1.76

====

- Test system: CASKI
- run-description: Primary qHTS to identify gynecologic anti-cancer compounds using libraries of approved drugs and bioactive compounds (AID 1345084); also: % is scaled to controls: 0 for no effect and ±100 for the full control effect; nearly all actives have a fitted effect of over 55% in size
- assay-conditions: Gynecologic cancer cell panel viability, ATPlite luminescence, 48 h; series mostly up to 57.5 µM
- Source text: National Center for Advancing Translational Sciences [NCATS] Assay Overview: Chemotherapeutic drug responses vary from cancer to cancer and from patient to patient. […] ATPlite is a luminescence based assay reliant on the conversion of a luciferase substrate to light in the presence of ATP. As a cytotoxic compound will suppress growth and decrease the number of cells, the concentration of ATP will decrease, and less light signal will be detected in the well. […]
Inconclusive results are not listed. Activity calls are given as the source filed them. Calls come from the whole dose curve; as a rule, active = well fitted cell-killing curve with a large enough effect; inconclusive = small, poorly fitted or top-dose-only effect, or effect the other way; inactive = flat fitted curve, though single readings scatter.
experimental-endpoint: activity change, negative = cytotoxicity

compound="CC1(C)CC[C@]2(C(=O)O)CC[C@]3(C)C(=CCC4[C@@]5(C)C[C@@H](O)[C@H](O)[C@@](C)(CO)C5CC[C@]43C)C2C1 (some centres not stated)" experimental_endpoint="activity change, negative = cytotoxicity" result_value=inactive
compound=COc1cccc(C(=O)NCCNc2nc3cc(C)cc(C)c3cc2C#N)c1 experimental_endpoint="activity change, negative = cytotoxicity" result_value=inactive
compound=COCCN1CCC(C(=O)NO)(S(=O)(=O)c2ccc(Oc3ccc(OC(F)(F)F)cc3)cc2)CC1 experimental_endpoint="activity change, negative = cytotoxicity" result_value=inactive
compound="CC(=O)OC1C(C)C2C(OC3OC(CO)C(O)C(O)C3O)OC=C(C(=O)O)C2C1OC(=O)c1ccccc1 (configuration not stated)" experimental_endpoint="activity change, negative = cytotoxicity" result_value=inactive
compound="COC(=O)C1=COC(O[C@@H]2O[C@H](CO)[C@@H](O)[C@H](O)[C@H]2O)[C@@H]2[C@@](C)(O)[C@@H](OC(=O)/C=C/c3ccccc3)C[C@]12O (some centres not stated)" experimental_endpoint="activity change, negative = cytotoxicity" result_value=inactive
compound=COc1ccc2c(c1)N1C(=O)C[C@@]34C=CC[N@+]5([O-])CC[C@H]2[C@H](CC3)[C@@]145 experimental_endpoint="activity change, negative = cytotoxicity" result_value=inactive
compound="CCC(C)(C)C1CCc2c(sc(NC(=O)c3ccc(Br)cc3)c2C#N)C1 (configuration not stated)" experimental_endpoint="activity change, negative = cytotoxicity" result_value=inactive
compound=Cc1ncc([N+](=O)[O-])n1C[C@H](O)CN1CCOCC1 experimental_endpoint="activity change, negative = cytotoxicity" result_value=inactive
compound="CC1(CO)CCCC2(C)C1C(OC(=O)c1ccccc1)CC1C(=O)OCC12O (configuration not stated)" experimental_endpoint="activity change, negative = cytotoxicity" result_value=inactive
compound=CC1=C[C@@H]2[C@H]3[C@@H]4O[C@@](C)(CC[C@H]4O)[C@H]3CC(=O)[C@]23C(=O)N[C@@H](CC(C)C)[C@@H]3[C@@H]1C experimental_endpoint="activity change, negative = cytotoxicity" result_value=inactive
compound="NC(Cc1c[nH]c2ccc(O)cc12)C(=O)O (configuration not stated)" experimental_endpoint="activity change, negative = cytotoxicity" result_value=inactive
compound="C=C(C)[C@H]1CC[C@]2(C(=O)O)CC[C@]3(C)C(CCC4[C@@]5(C)CCC(=O)C(C)(C)C5CC[C@]43C)C12 (some centres not stated)" experimental_endpoint="activity change, negative = cytotoxicity" result_value=inactive
compound="N#Cc1ccc(C2CCCc3cncn32)cc1 (configuration not stated)" experimental_endpoint="activity change, negative = cytotoxicity" result_value=inactive
compound=O=C(O)C1(c2ccc(-c3ccc(Cl)c(Cl)c3)c(F)c2)CC1 experimental_endpoint="activity change, negative = cytotoxicity" result_value=inactive
compound=CCOC(=O)COc1ccc2c(c1)C[C@@H](NC[C@H](O)c1cccc(Cl)c1)CC2 experimental_endpoint="activity change, negative = cytotoxicity" result_value=inactive
compound="C=C1CCC2C(C)(C)CC(O)CC2(C)C1CCC(C)CC(=O)O (configuration not stated)" experimental_endpoint="activity change, negative = cytotoxicity" result_value=inactive
compound=C=C[C@H]1[C@H](O[C@@H]2O[C@H](CO)[C@@H](O)[C@H](O)[C@H]2O)OC=C(C(=O)OC)[C@H]1CC=O experimental_endpoint="activity change, negative = cytotoxicity" result_value=inactive
compound=CC(=O)c1ccc(O[C@@H]2OC[C@@H](O)[C@H](O)[C@H]2O[C@]2(CO)O[C@H](CO)[C@@H](O)[C@@H]2O)c(O)c1 experimental_endpoint="activity change, negative = cytotoxicity" result_value=inactive
compound=O=C(C[C@@H]1C(C(=O)O)=CO[C@@H](O[C@@H]2O[C@H](CO)[C@@H](O)[C@H](O)[C@H]2O)/C1=C\CO)OCCc1ccc(O)c(O)c1 experimental_endpoint="activity change, negative = cytotoxicity" result_value=inactive
compound="C=C1CCC2[C@](C)(CO)CCC[C@@]2(C)[C@@H]1CCC1=CCOC1=O (some centres not stated)" experimental_endpoint="activity change, negative = cytotoxicity" result_value=inactive
compound=C[C@@H]1O[C@@H](O[C@@H]2\C=C/C=C\C=C/C=C\C[C@H](C)OC(=O)/C=C\[C@H]3O[C@@H]3C[C@H](O)C[C@]3(O)C[C@@H](O)[C@@H](C(=O)O)[C@H](C2)O3)[C@H](O)[C@H](N)[C@@H]1O experimental_endpoint="activity change, negative = cytotoxicity" result_value=inactive
compound="COc1cc(-c2ccc(O)cc2)c(OC)c(O)c1C1=CC(=O)OC1CC(=O)O (configuration not stated)" experimental_endpoint="activity change, negative = cytotoxicity" result_value=inactive
compound="CC(=O)NC(Cc1c[nH]c2ccccc(=O)c12)C(=O)O (configuration not stated)" experimental_endpoint="activity change, negative = cytotoxicity" result_value=inactive
compound="CC1(C)CC[C@]2(C(=O)O[C@@H]3O[C@H](CO)[C@@H](O)[C@H](O)[C@H]3O)CC[C@]3(C)C(=CCC4[C@@]5(C)C[C@@H](O)[C@H](O)[C@@](C)(CO)C5[C@H](O)C[C@]43C)C2C1 (some centres not stated)" experimental_endpoint="activity change, negative = cytotoxicity" result_value=inactive
compound="CC(=O)O[C@@H]1CC2C(C)(C)C(=O)C=C[C@]2(C)C2CC[C@]3(C)C(=CC(=O)[C@@H]3c3ccoc3)[C@@]21C (some centres not stated)" experimental_endpoint="activity change, negative = cytotoxicity" result_value=inactive
compound="CC(=O)NC(C(=O)OC1CCC(C)(C)C2CC=C3C(=O)OCC3C12C)C(C)C (configuration not stated)" experimental_endpoint="activity change, negative = cytotoxicity" result_value=inactive
compound=Cn1cc(Nc2cnccc2C(=O)O)c2cccnc21 experimental_endpoint="activity change, negative = cytotoxicity" result_value=inactive
compound="COc1ccc(CC(NC(C)=O)C(=O)O)cc1 (configuration not stated)" experimental_endpoint="activity change, negative = cytotoxicity" result_value=inactive
compound=CCCN1CCC[C@@H](c2cccc(S(C)(=O)=O)c2)C1 experimental_endpoint="activity change, negative = cytotoxicity" result_value=inactive
compound="C/C=C/C=C/C1=C2C(=O)C3(C)C4C(C(=O)CC(O)/C=C/C)=C(O1)C1(C)C2C2(C)OC1(O)C4(C)OC23O (configuration not stated)" experimental_endpoint="activity change, negative = cytotoxicity" result_value=inactive
compound="C=C1CCC2(OC1)OC1CC3C4CC=C5CC(O)CC(O[C@@H]6OC[C@H](OC(=O)C(O)C(C)CC)[C@H](O)[C@H]6O[C@@H]6O[C@@H](C)[C@H](O)[C@@H](O)[C@H]6O)C5(C)C4CCC3(C)C1C2C (some centres not stated)" experimental_endpoint="activity change, negative = cytotoxicity" result_value="19.8% [at 11.6 µM] (inactive)"
compound=OC[C@H]1O[C@@H](Oc2cc(O)cc(-c3cc4ccc(O[C@@H]5O[C@H](CO)[C@@H](O)[C@H](O)[C@H]5O)cc4o3)c2)[C@H](O)[C@@H](O)[C@@H]1O experimental_endpoint="activity change, negative = cytotoxicity" result_value=inactive
